- Tested Target: T1, hen egg-white lysozyme (hen, UniProt P00698 19-147)
- T1 construct: also called HEL
- T1 sequence (P00698 19-147): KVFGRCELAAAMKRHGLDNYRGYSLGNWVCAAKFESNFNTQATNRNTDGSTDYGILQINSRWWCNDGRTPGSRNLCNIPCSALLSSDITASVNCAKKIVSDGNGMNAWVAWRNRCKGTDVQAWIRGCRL
- Assay Overview: fluorescence titration in solution, 0.3 µM conjugate, buffer C, 25 °C
Give criterion met when the value for ΔF∞/F0 (maximal relative variation of fluorescence on HEL binding) is at least 0.5. Give criterion not met when it is less.

Illustrative cases are given below, each with its answer.
{"columns": ["Binder", "Category"],
 "data": [
  ["H4S(A26ANBD) (designed binder, Cys at position 26 (H4S numbering) coupled to IANBD ester (ANBD), also called Ala26) MRGSHHHHHHGSVKVKFFWNGEEKEVDTSKIVWVKRCGKSVLFIYDDNGKNGYGDVTEKDAPKELLDMLARAEREKKLN", "criterion met"],
  ["H4S conjugate, IANBD fluorophore coupled at position Thr46 (designed binder, Cys at position 46 (H4S numbering) coupled to IANBD ester (ANBD)) MRGSHHHHHHGSVKVKFFWNGEEKEVDTSKIVWVKRAGKSVLFIYDDNGKNGYGDVCEKDAPKELLDMLARAEREKKLN", "criterion not met"],
  ["H4S conjugate, IANBD fluorophore coupled at position Trp8 (designed binder, Cys at position 8 (H4S numbering) coupled to IANBD ester (ANBD)) MRGSHHHHHHGSVKVKFFCNGEEKEVDTSKIVWVKRAGKSVLFIYDDNGKNGYGDVTEKDAPKELLDMLARAEREKKLN", "criterion met"],
  ["H4S conjugate, IANBD fluorophore coupled at position Lys28 (designed binder, Cys at position 28 (H4S numbering) coupled to IANBD ester (ANBD)) MRGSHHHHHHGSVKVKFFWNGEEKEVDTSKIVWVKRAGCSVLFIYDDNGKNGYGDVTEKDAPKELLDMLARAEREKKLN", "criterion not met"],
  ["H4S conjugate, IANBD fluorophore coupled at position Lys39 (designed binder, Cys at position 39 (H4S numbering) coupled to IANBD ester (ANBD)) MRGSHHHHHHGSVKVKFFWNGEEKEVDTSKIVWVKRAGKSVLFIYDDNGCNGYGDVTEKDAPKELLDMLARAEREKKLN", "criterion met"]
]}

For this binder, is measured ΔF∞/F0 (maximal relative variation of fluorescence on HEL binding) 0.5 or higher? H4S conjugate, IANBD fluorophore coupled at position Phe7 (designed binder, Cys at position 7 (H4S numbering) coupled to IANBD ester (ANBD)) MRGSHHHHHHGSVKVKFCWNGEEKEVDTSKIVWVKRAGKSVLFIYDDNGKNGYGDVTEKDAPKELLDMLARAEREKKLN
criterion not met

For this binder, is measured ΔF∞/F0 (maximal relative variation of fluorescence on HEL binding) 0.5 or higher? H4S conjugate, IANBD fluorophore coupled at position Val21 (designed binder, Cys at position 21 (H4S numbering) coupled to IANBD ester (ANBD)) MRGSHHHHHHGSVKVKFFWNGEEKEVDTSKICWVKRAGKSVLFIYDDNGKNGYGDVTEKDAPKELLDMLARAEREKKLN
criterion met

These measurements were taken from patent EP2469278A1.
